# Assay Protocol: Aqueous solubility of the compound at pH 7.4
# Type: physicochemical
# Settings: buffer
Recorded Metric: solubility

Lookup result for "CC(C)(C)CC(=O)Nc1c(F)cc(C(=O)Nc2nccs2)cc1F" ; measured solubility: 1 µg/mL

====

# Organism: Homo sapiens
# Assay Protocol: Selectivity ratio of Ki for human adenosine A1 receptor to Ki for human adenosine A2A receptor
Recorded Metric: Ratio Ki
One number for each entry.

Take a look at these entries with their results.
Compound Smiles	Ratio Ki
COc1cc(C(=O)Nc2nccs2)ccc1NC(=O)CC(C)(C)C	20
Cc1cc(C(=O)Nc2nccs2)cc(Cl)c1NC(=O)CC(C)(C)C	18
CC(C)(C)CC(=O)Nc1ccc(C(=O)Nc2nccs2)cc1F	71
COc1c(C(=O)Nc2nccs2)ccc(NC(=O)CC(C)(C)C)c1F	18
Cc1cc(C(=O)Nc2nccs2)ccc1NC(=O)CC(C)(C)C	24

# map each compound to its Ratio Ki
1. CC(C)(C)CC(=O)Nc1c(F)cc(C(=O)Nc2nccs2)cc1F
2. CC(C)(C)CC(=O)Nc1ccc(C(=O)Nc2nccs2)cc1Cl
3. COc1cc(NC(=O)CC(C)(C)C)ccc1C(=O)Nc1nccs1

[69, 10, 22]

====

# System: Rattus norvegicus
# Assay Protocol: Cmax in Sprague-Dawley rat at 1 mg/kg, po
# Type: ADME, organism-based
# Set-up: dose 1 mg/kg, route oral
# Settings: in vivo
Recorded Metric: Cmax (ng/mL)
Answers are plain numbers, in ng/mL.

Reported Cmax for "CC(C)(C)CC(=O)Nc1c(F)cc(C(=O)Nc2nccs2)cc1F" was 878

====

For each record, write down the corresponding IC50.
# Assay Target: Cytochrome P450 2C9 (Homo sapiens, UniProt P11712)
# Sequence (P11712 whole entry): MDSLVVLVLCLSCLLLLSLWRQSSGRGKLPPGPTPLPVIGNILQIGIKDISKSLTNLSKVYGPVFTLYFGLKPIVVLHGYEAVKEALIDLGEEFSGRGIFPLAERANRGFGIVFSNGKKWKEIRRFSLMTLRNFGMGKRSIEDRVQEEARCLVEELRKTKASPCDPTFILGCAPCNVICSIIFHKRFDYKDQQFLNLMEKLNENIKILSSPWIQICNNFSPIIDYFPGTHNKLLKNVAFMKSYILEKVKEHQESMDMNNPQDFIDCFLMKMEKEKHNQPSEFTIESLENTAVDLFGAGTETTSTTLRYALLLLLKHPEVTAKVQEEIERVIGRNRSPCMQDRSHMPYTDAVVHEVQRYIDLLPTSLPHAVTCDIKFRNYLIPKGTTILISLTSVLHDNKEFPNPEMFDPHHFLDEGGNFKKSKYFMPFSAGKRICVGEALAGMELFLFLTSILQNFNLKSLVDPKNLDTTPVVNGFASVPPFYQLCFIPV
# Assay Protocol: Inhibition of recombinant CYP2C9 after 45 mins

Reference set, count: 5
Compound Smiles	IC50
Cc1ccccc1C(=O)Nc1ccc(C(=O)Nc2nccs2)cc1	> 40 µM
CCCC(=O)Nc1ccc(C(=O)Nc2nccs2)cc1	> 40 µM
CC(C)CC(=O)Nc1ccc(C(=O)Nc2nccs2)cc1	> 40 µM
CC(C)(C)CC(=O)Nc1ccc(C(=O)Nc2nccs2)cc1	> 40 µM
CCCCC(=O)Nc1ccc(C(=O)Nc2nccs2)cc1	40 µM

So for "CC(C)(C)CC(=O)Nc1c(F)cc(C(=O)Nc2nccs2)cc1F" , the logged IC50 turned out to be > 40 µM

====

# Assay Target: Adenosine receptor A3 (Homo sapiens, UniProt P0DMS8)
# Sequence (P0DMS8 whole entry): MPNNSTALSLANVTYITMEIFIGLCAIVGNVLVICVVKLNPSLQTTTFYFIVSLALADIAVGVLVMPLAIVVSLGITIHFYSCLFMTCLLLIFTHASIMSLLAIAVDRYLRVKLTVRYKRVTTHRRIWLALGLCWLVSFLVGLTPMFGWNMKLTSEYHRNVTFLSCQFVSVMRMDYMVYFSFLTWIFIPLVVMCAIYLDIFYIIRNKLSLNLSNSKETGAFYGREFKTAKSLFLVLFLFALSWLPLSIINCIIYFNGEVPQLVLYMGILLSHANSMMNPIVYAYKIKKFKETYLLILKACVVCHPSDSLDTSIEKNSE
# Assay Protocol: Displacement of [3H]-AB-MECA from human recombinant adenosine A3 receptor expressed in CHO-K1 cells after 60 mins
pKi: −log10 of the molar value.
Recorded Metric: pKi

Quick note, pKi for "CC(C)(C)CC(=O)Nc1c(F)cc(C(=O)Nc2nccs2)cc1F" landed at < 5.00
